Where do these numbers come from? They come from patent EP1285920A1.

- System: DU145 prostate carcinoma
- EXPERIMENTAL SETUP: number of 5 mice; i.v. qd x 1 at estimated MTD (Taxol 24 mg/kg as two split doses), Day 91
Reported Toxic Deaths is given for each of the following compounds.
Keep the answer to the number alone.

CCC(=O)O[C@H]1C(=O)[C@@]2(C)[C@H]([C@H](OC(=O)c3ccccc3)[C@]3(O)C[C@H](OC(=O)[C@H](O)[C@@H](NC(=O)c4ccccc4)c4ccoc4)C(C)=C1C3(C)C)[C@]1(OC(C)=O)CO[C@@H]1C[C@@H]2O | 0
CC(=O)O[C@H]1C(=O)[C@@]2(C)[C@H]([C@H](OC(=O)c3ccccc3)[C@]3(O)C[C@H](OC(=O)[C@H](O)[C@@H](NC(=O)c4ccccc4)c4ccccc4)C(C)=C1C3(C)C)[C@]1(OC(C)=O)CO[C@@H]1C[C@@H]2O [Taxol, paclitaxel, reference compound] | 1
CC(=O)O[C@@]12CO[C@@H]1C[C@H](O)[C@@]1(C)C(=O)[C@H](OC(=O)C3CC3)C3=C(C)[C@@H](OC(=O)[C@H](O)[C@@H](NC(=O)OC(C)(C)C)c4cccs4)C[C@@](O)([C@@H](OC(=O)c4ccccc4)[C@H]21)C3(C)C | 5
CCC(=O)O[C@H]1C(=O)[C@@]2(C)[C@H]([C@H](OC(=O)c3ccccc3)[C@]3(O)C[C@H](OC(=O)[C@H](O)[C@H](C=C(C)C)NC(=O)OC(C)(C)C)C(C)=C1C3(C)C)[C@]1(OC(C)=O)CO[C@@H]1C[C@@H]2O | 0

Input: Give the reported Toxic Deaths for "CCC(=O)O[C@H]1C(=O)[C@@]2(C)[C@H]([C@H](OC(=O)c3ccccc3)[C@]3(O)C[C@H](OC(=O)[C@H](O)[C@@H](NC(=O)OC(C)(C)C)c4ccccn4)C(C)=C1C3(C)C)[C@]1(OC(C)=O)CO[C@@H]1C[C@@H]2O" (system: DU145 prostate carcinoma).
Output: 1

Input: Lab note: need Toxic Deaths with DU145 prostate carcinoma for entry "CCCC(=O)O[C@H]1C(=O)[C@@]2(C)[C@H]([C@H](OC(=O)c3ccccc3)[C@]3(O)C[C@H](OC(=O)[C@H](O)[C@@H](NC(=O)OC(C)(C)C)c4ccsc4)C(C)=C1C3(C)C)[C@]1(OC(C)=O)CO[C@@H]1C[C@@H]2O" , please look it up.
Output: 3

Input: Please state recorded Toxic Deaths (tested on DU145 prostate carcinoma) of "CCC(=O)O[C@H]1C(=O)[C@@]2(C)[C@H]([C@H](OC(=O)c3ccccc3)[C@]3(O)C[C@H](OC(=O)[C@H](O)[C@@H](NC(=O)c4ccccc4)C4CC4)C(C)=C1C3(C)C)[C@]1(OC(C)=O)CO[C@@H]1C[C@@H]2O"
Output: 0

Input: Give the reported Toxic Deaths for "CC(=O)O[C@@]12CO[C@@H]1C[C@H](O)[C@@]1(C)C(=O)[C@H](OC(=O)C3CC3)C3=C(C)[C@@H](OC(=O)[C@H](O)[C@H](C=C(C)C)NC(=O)OC(C)(C)C)C[C@@](O)([C@@H](OC(=O)c4ccccc4)[C@H]21)C3(C)C" (system: DU145 prostate carcinoma).
Output: 0

###

- Tested on: MX-1 carcinoma
- EXPERIMENTAL SETUP: number of 6 mice; i.v. qd x 1 at MTD, Day 60; mg/kg: Taxol 36 (split dose), 0503 72.6, 0536 49, 0663 159, 0670 123, 0687 159, 0706 108, 0908 159, 0947 76.9, 0951 72.6, 0983 67.4, 0999 49, 1003 49, 1011 108
ENDPOINT NAME: Toxic Deaths
Please state the value as a number alone, without comment.

Use these answered entries as a reference point.
CCC(=O)O[C@H]1C(=O)[C@@]2(C)[C@H]([C@H](OC(=O)c3ccccc3)[C@]3(O)C[C@H](OC(=O)[C@H](O)[C@@H](NC(=O)c4ccccc4)c4cccs4)C(C)=C1C3(C)C)[C@]1(OC(C)=O)CO[C@@H]1C[C@@H]2O | 1
CCCC(=O)O[C@H]1C(=O)[C@@]2(C)[C@H]([C@H](OC(=O)c3ccccc3)[C@]3(O)C[C@H](OC(=O)[C@H](O)[C@@H](NC(=O)OC(C)(C)C)c4ccco4)C(C)=C1C3(C)C)[C@]1(OC(C)=O)CO[C@@H]1C[C@@H]2O | 0
CC(=O)O[C@@]12CO[C@@H]1C[C@H](O)[C@@]1(C)C(=O)[C@H](OC(=O)C3CC3)C3=C(C)[C@@H](OC(=O)[C@H](O)[C@@H](NC(=O)c4ccccc4)c4ccco4)C[C@@](O)([C@@H](OC(=O)c4ccccc4)[C@H]21)C3(C)C | 0

Kindly consider the entry below.
Input: # Toxic Deaths lookup, item CC(=O)O[C@H]1C(=O)[C@@]2(C)[C@H]([C@H](OC(=O)c3ccccc3)[C@]3(O)C[C@H](OC(=O)[C@H](O)[C@@H](NC(=O)c4ccccc4)c4ccccc4)C(C)=C1C3(C)C)[C@]1(OC(C)=O)CO[C@@H]1C[C@@H]2O [Taxol, paclitaxel, reference compound]
Output: 0
